Test: NCI Yeast Anticancer Drug Screen. Data for the mlh1 rad18 strain (AID 175)
Conditions: S. cerevisiae mlh1 rad18 strain growth inhibition; at 50.0 µM; hits give high values
About 79,000 compounds went through this panel and 15% of them were active in at least one assay; those are over-represented in the sample as a whole.
value-kind: growth inhibition (%)
Kindly answer with a numeric value in %, unit omitted.

compound | growth inhibition [%]
COC(=O)C(c1ccccc1)S(=O)(=O)c1ccccc1 (stereo unspecified) | -5.5
COc1nn(C)c(=O)c2cccnc12 | 1.2
CCN(CC)c1ccc(C)cc1Cl | 5.55

Request: Suppose we examine the compound COC1C(CO)OC(n2c3c(Cl)cccc3c3c4c(c5c6cccc(Cl)c6[nH]c5c32)C(=O)NC4=O)C(O)C1O (stereo unspecified) ; what growth inhibition value has been reported?
Result: -21.1

Request: Suppose we examine the compound OC(C1CCCCCCCCCC1)C(O)C1CCCCCCCCCC1 (stereo unspecified) ; what growth inhibition value has been reported?
Result: -8.85

Request: Suppose we examine the compound O=C(O)C1Cc2c([nH]c3ccccc23)C(CCCCO)N1 (stereo unspecified) ; what growth inhibition value has been reported?
Result: -11.3
